Target: HePTP (Homo sapiens, UniProt P35236)
Sequence (P35236 1-360): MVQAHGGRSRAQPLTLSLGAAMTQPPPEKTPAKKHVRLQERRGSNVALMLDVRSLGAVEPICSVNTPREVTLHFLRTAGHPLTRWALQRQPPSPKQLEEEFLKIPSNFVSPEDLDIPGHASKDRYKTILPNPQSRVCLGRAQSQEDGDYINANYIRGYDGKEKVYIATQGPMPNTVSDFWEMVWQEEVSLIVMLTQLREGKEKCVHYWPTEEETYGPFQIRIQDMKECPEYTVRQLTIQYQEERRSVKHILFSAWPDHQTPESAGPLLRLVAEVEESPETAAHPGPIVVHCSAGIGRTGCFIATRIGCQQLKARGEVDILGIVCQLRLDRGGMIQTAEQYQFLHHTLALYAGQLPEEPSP
Test: PTP inhibition assay (pNPP)
Assay type: biochemical
Conditions: pNPP at Km, pH 7.0, 25° C.
Answer each item with its documented IC50.

Dear colleague, could you please provide IC50 for the compounds listed below?
1. O=C(Nc1ccc(N2CCOCC2)cc1)C(c1ccccc1)S(=O)(=O)O (centres unmarked)
2. O=C(CS(=O)(=O)O)Nc1nc2ccccc2s1
3. Cc1c(Br)cc(NC(=O)CS(=O)(=O)O)cc1Br
4. O=C(Nc1cccc(OCc2ccccc2)c1)C(=O)Nc1ccccc1NC(=O)C(c1ccccc1)S(=O)(=O)O (centres unmarked)
5. O=C(C(c1ccccc1)S(=O)(=O)O)N1CCC(Cc2ccccc2)CC1 (centres unmarked)
6. O=C(CS(=O)(=O)O)Nc1cnc2ccccc2c1

1. > 200 µM
2. > 100 µM
3. > 100 µM
4. > 50 µM
5. > 200 µM
6. > 100 µM

Dear colleague, could you please provide IC50 for the compounds listed below?
1. O=C(NCCNC(=O)C(c1ccccc1)S(=O)(=O)O)c1cccc(C(=O)c2ccccc2)c1 (centres unmarked)
2. O=C(CS(=O)(=O)O)Nc1ccc2nc(C(F)(F)F)[nH]c2c1
3. O=C(C(c1ccccc1)S(=O)(=O)O)N1CCCC2CCCCC21 (centres unmarked)
4. O=C(Nc1nc2ccccc2s1)C(c1ccccc1)S(=O)(=O)O (centres unmarked)
5. O=C(Nc1ccc(OCc2ccccc2)c(Cl)c1)C(c1ccccc1)S(=O)(=O)O (centres unmarked)
6. O=C(Nc1ccc2nc(C(F)(F)F)[nH]c2c1)C(c1ccccc1)S(=O)(=O)O (centres unmarked)
7. O=C(NCc1ccc(NC(=O)C(c2ccccc2)S(=O)(=O)O)cc1)c1ccccc1-c1ccc(C(F)(F)F)cc1 (centres unmarked)
8. Cc1c(Br)cc(NC(=O)C(c2ccccc2)S(=O)(=O)O)cc1Br (centres unmarked)

["> 200 µM", "> 100 µM", "> 200 µM", "50 µM", "> 100 µM", "> 200 µM", "150 µM", "> 100 µM"]

----------
target: Laforin (Homo sapiens, UniProt O95278); experiment: PTP inhibition assay (pNPP); format: biochemical; conditions: pNPP at Km, pH 7.0, 25° C.; read-out: IC50 Laforin
Sequence (O95278 whole entry): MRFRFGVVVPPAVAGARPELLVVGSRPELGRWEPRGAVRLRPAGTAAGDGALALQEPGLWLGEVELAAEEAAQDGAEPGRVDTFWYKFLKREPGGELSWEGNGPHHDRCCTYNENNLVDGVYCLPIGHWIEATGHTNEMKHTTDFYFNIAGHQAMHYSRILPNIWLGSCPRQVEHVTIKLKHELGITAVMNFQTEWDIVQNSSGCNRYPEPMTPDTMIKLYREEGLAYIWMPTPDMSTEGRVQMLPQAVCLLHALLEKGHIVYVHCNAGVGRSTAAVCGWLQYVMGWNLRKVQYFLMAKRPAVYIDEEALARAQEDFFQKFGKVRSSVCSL
Property: IC50 (nM)
One number for each entry, in nM.

// worked examples, IC50 included
>>> print(df.to_string())
                                   compound  observed_value
0  CCCCc1ccc(NC(=O)C(=O)Nc2ccccc2NC(=O)C(c2ccccc2)S(=O)(=O)O)cc1 (stereo not shown)             140
1  CCOC(=O)c1ccc2nc(NC(=O)C(c3ccccc3)S(=O)(=O)O)sc2c1 (stereo not shown)            1700
2  COc1ccc2nc(NC(=O)C(c3ccccc3)S(=O)(=O)O)sc2c1 (stereo not shown)            2100
3  Nc1ccc2nc(NC(=O)C(c3ccccc3)S(=O)(=O)O)sc2c1 (stereo not shown)            3300
4  COc1cccc2sc(NC(=O)C(c3ccccc3)S(=O)(=O)O)nc12 (stereo not shown)            1200
5  O=C(Nc1nnc(-c2ccccc2)s1)C(c1ccccc1)S(=O)(=O)O (stereo not shown)            1300
6  O=C(NCc1ccc(NC(=O)C(c2ccccc2)S(=O)(=O)O)cc1)c1ccccc1-c1ccc(C(F)(F)F)cc1 (stereo not shown)             800
7  O=C(Nc1nc2ccc(Cl)cc2s1)C(c1ccccc1)S(=O)(=O)O (stereo not shown)            2300

Dear colleague, could you please provide IC50 for the compounds listed below?
1. O=C(NCCNC(=O)C(c1ccccc1)S(=O)(=O)O)c1cccc(C(=O)c2ccccc2)c1 (stereo not shown)
2. Cc1cc2nc(NC(=O)C(c3ccccc3)S(=O)(=O)O)sc2cc1C (stereo not shown)

1: 9000; 2: 1100

----------
molecular target: Meg2 (Homo sapiens, UniProt P43378); experiment: PTP inhibition assay (pNPP); type: biochemical
Sequence (P43378 whole entry): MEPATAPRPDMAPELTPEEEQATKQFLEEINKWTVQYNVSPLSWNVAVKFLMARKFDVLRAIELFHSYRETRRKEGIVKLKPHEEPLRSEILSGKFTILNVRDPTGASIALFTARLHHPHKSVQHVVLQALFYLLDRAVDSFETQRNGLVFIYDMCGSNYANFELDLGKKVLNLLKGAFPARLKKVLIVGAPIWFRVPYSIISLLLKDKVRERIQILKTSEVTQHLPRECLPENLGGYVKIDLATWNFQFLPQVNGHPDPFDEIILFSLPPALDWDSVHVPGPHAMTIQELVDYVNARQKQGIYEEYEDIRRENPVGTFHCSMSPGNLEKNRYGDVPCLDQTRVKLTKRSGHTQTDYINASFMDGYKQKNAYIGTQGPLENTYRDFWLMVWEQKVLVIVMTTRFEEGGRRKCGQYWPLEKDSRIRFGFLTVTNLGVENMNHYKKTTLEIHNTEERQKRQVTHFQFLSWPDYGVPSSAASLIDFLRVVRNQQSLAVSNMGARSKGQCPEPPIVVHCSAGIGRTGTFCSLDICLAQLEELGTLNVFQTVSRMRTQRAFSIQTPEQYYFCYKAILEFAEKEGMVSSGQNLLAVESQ
Answer each item with its documented IC50.

                                   molecule  observed_value
0  O=C(Nc1ccc(N2CCOCC2)cc1)C(c1ccccc1)S(=O)(=O)O (stereo not shown) [Compound L319M68]        > 200 µM
1  O=C(Nc1ccc2nc(C(F)(F)F)[nH]c2c1)C(c1ccccc1)S(=O)(=O)O (stereo not shown) [Compound L319M54]        > 200 µM
2  O=C(CS(=O)(=O)O)Nc1nc2ccccc2s1 [Compound L335N15]        > 100 µM

Field: next molecule
Requested read-out: IC50. Entry: O=C(Nc1cccc(OCc2ccccc2)c1)C(c1ccccc1)S(=O)(=O)O (stereo not shown) [Compound L319M52]
> 200 µM

----------
Target: LYP (Homo sapiens)
Sequence (Q9Y2R2 1-807): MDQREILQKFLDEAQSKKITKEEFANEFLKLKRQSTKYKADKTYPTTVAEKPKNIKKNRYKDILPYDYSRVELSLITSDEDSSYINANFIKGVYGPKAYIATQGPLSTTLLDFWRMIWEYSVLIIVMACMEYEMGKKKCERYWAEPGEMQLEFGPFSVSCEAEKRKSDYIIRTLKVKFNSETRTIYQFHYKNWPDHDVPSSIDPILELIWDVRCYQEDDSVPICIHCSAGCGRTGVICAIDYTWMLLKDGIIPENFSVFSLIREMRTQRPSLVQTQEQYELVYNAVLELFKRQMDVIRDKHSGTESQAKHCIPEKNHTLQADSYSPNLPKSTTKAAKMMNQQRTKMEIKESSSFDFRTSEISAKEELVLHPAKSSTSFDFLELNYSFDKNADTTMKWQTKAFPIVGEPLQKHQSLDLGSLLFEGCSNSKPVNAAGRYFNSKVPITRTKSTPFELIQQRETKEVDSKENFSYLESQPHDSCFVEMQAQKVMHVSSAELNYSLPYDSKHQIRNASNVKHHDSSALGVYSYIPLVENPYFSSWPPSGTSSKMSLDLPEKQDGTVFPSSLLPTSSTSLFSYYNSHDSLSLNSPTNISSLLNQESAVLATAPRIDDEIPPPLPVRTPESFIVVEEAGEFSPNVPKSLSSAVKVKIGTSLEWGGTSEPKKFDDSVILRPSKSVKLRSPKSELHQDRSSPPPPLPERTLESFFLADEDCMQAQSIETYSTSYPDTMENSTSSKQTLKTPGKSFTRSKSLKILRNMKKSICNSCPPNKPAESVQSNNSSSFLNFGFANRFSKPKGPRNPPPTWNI
Assay: PTP inhibition assay (pNPP)
Format: biochemical
Details: pNPP at Km, pH 7.0, 25° C.
Property: IC50

// worked examples, IC50 included
>>> print(df.to_string())
                                   compound  property  observed_value
0  O=C(Nc1ccc(OCc2ccccc2)c(Cl)c1)C(c1ccccc1)S(=O)(=O)O (centres unmarked)      IC50        > 200 µM
1  O=C(Nc1ccc(N2CCOCC2)cc1)C(c1ccccc1)S(=O)(=O)O (centres unmarked)      IC50        > 200 µM
2  O=C(CS(=O)(=O)O)Nc1ccc2nc(C(F)(F)F)[nH]c2c1      IC50        > 100 µM
3  COc1cccc2sc(NC(=O)C(c3ccccc3)S(=O)(=O)O)nc12 (centres unmarked)      IC50        > 200 µM
4  Cc1ccc2nc(NC(=O)C(c3ccccc3)S(=O)(=O)O)sc2c1 (centres unmarked)      IC50        > 200 µM
5  O=C(Nc1nc2ccc(OC(F)(F)F)cc2s1)C(c1ccccc1)S(=O)(=O)O (centres unmarked)      IC50           20 µM
6  O=C(Nc1nc2c(Cl)cccc2s1)C(c1ccccc1)S(=O)(=O)O (centres unmarked)      IC50           22 µM

Field: next compound
Requested read-out: IC50. Entry: CCCCc1ccc(NC(=O)C(=O)Nc2ccccc2NC(=O)C(c2ccccc2)S(=O)(=O)O)cc1 (centres unmarked)
> 50 µM
